Origin of measurements: paper PMC11040352

# EXPERIMENT NOTES: Ex vivo biodistribution in mice with MM1S tumor xenografts
# CONDITION LABEL: both sexes, NSG, mouse, stomach (with contents), 80 µCi, 60 min p.i.; MM1S xenograft mice; read-out: uptake in stomach (with contents)
OBSERVABLE: tissue uptake at 1 h (%ID/g)
Report the value in %ID/g with no unit label.

*Q* Fill in tissue uptake at 1 h for record CC[C@H](C)[C@@H]1NC(=O)[C@@H]2CCCN2C(=O)[C@H](Cc2ccccc2)NC(=O)[C@H](CC(=O)O)NC(=O)[C@H](C)NC(=O)[C@@H]2CSCc3cc(cc(c3)CSC[C@H](NC(=O)[C@H](C)NC(=O)CCOCCOCCOCCNC(=O)CN3CCN(CC(=O)O)CCN(CC(=O)O)CC3)C(=O)N[C@@H](C(C)C)C(=O)N3CCC[C@H]3C(=O)N2)CSC[C@@H](C(N)=O)NC(=O)[C@H](Cc2ccc(O)cc2)NC(=O)[C@H](Cc2c[nH]c3ccccc23)NC1=O [[^68Ga]Ga‐AJ206, metal not drawn]
*A* 0.32

---

# EXPERIMENT NOTES: Ex vivo biodistribution in mice with MM1S tumor xenografts
# CONDITION LABEL: both sexes, NSG, mouse, heart, 80 µCi, total radioactivity, 90 min p.i.; MM1S xenograft mice; read-out: uptake in heart
# Procedure: […] Mice with 100–200 mm^3 tumor volume were used for ex vivo biodistribution studies. For radiotracer pharmacokinetics studies, mice with MOLP8 tumor xenografts received ≈80 µCi (2.96 MBq) [^68Ga]Ga‐AJ206 and were sacrificed at pre‐determined time points (5, 30, 60 and 120 min). Similarly, for dosimetry study, mice with MM1S tumor xenografts received ≈80 µCi (2.96 MBq) of [^68Ga]Ga‐AJ206 and were sacrificed at pre‐determined time points (5, 30, 60, 90 and 120 min). […]
OBSERVABLE: tissue uptake at 1.5 h (%ID/g)
Report the value in %ID/g with no unit label.

*Q* Fill in tissue uptake at 1.5 h for record CC[C@H](C)[C@@H]1NC(=O)[C@@H]2CCCN2C(=O)[C@H](Cc2ccccc2)NC(=O)[C@H](CC(=O)O)NC(=O)[C@H](C)NC(=O)[C@@H]2CSCc3cc(cc(c3)CSC[C@H](NC(=O)[C@H](C)NC(=O)CCOCCOCCOCCNC(=O)CN3CCN(CC(=O)O)CCN(CC(=O)O)CC3)C(=O)N[C@@H](C(C)C)C(=O)N3CCC[C@H]3C(=O)N2)CSC[C@@H](C(N)=O)NC(=O)[C@H](Cc2ccc(O)cc2)NC(=O)[C@H](Cc2c[nH]c3ccccc23)NC1=O [[^68Ga]Ga‐AJ206, metal not drawn]
*A* 0.35

---

# EXPERIMENT NOTES: Ex vivo biodistribution in mice with MM1S tumor xenografts
# CONDITION LABEL: both sexes, NSG, mouse, femur, 80 µCi, 90 min p.i.; MM1S xenograft mice; read-out: uptake in femur
OBSERVABLE: tissue uptake at 1.5 h

*Q* Fill in tissue uptake at 1.5 h for record CC[C@H](C)[C@@H]1NC(=O)[C@@H]2CCCN2C(=O)[C@H](Cc2ccccc2)NC(=O)[C@H](CC(=O)O)NC(=O)[C@H](C)NC(=O)[C@@H]2CSCc3cc(cc(c3)CSC[C@H](NC(=O)[C@H](C)NC(=O)CCOCCOCCOCCNC(=O)CN3CCN(CC(=O)O)CCN(CC(=O)O)CC3)C(=O)N[C@@H](C(C)C)C(=O)N3CCC[C@H]3C(=O)N2)CSC[C@@H](C(N)=O)NC(=O)[C@H](Cc2ccc(O)cc2)NC(=O)[C@H](Cc2c[nH]c3ccccc23)NC1=O [[^68Ga]Ga‐AJ206, metal not drawn]
*A* 0.28 %ID/g

---

# EXPERIMENT NOTES: Ex vivo biodistribution in mice with MM1S tumor xenografts
# CONDITION LABEL: both sexes, NSG, mouse, muscle, 80 µCi, 60 min p.i.; MM1S xenograft mice; read-out: uptake in muscle
OBSERVABLE: tissue uptake at 1 h (%ID/g)
Report the value in %ID/g with no unit label.

*Q* Fill in tissue uptake at 1 h for record CC[C@H](C)[C@@H]1NC(=O)[C@@H]2CCCN2C(=O)[C@H](Cc2ccccc2)NC(=O)[C@H](CC(=O)O)NC(=O)[C@H](C)NC(=O)[C@@H]2CSCc3cc(cc(c3)CSC[C@H](NC(=O)[C@H](C)NC(=O)CCOCCOCCOCCNC(=O)CN3CCN(CC(=O)O)CCN(CC(=O)O)CC3)C(=O)N[C@@H](C(C)C)C(=O)N3CCC[C@H]3C(=O)N2)CSC[C@@H](C(N)=O)NC(=O)[C@H](Cc2ccc(O)cc2)NC(=O)[C@H](Cc2c[nH]c3ccccc23)NC1=O [[^68Ga]Ga‐AJ206, metal not drawn]
*A* 0.13

---

# EXPERIMENT NOTES: Ex vivo biodistribution in mice with MM1S tumor xenografts
# CONDITION LABEL: both sexes, NSG, mouse, stomach (with contents), 80 µCi, 30 min p.i.; MM1S xenograft mice; read-out: uptake in stomach (with contents)
# Description: […] Mice with 100–200 mm^3 tumor volume were used for ex vivo biodistribution studies. For radiotracer pharmacokinetics studies, mice with MOLP8 tumor xenografts received ≈80 µCi (2.96 MBq) [^68Ga]Ga‐AJ206 and were sacrificed at pre‐determined time points (5, 30, 60 and 120 min). Similarly, for dosimetry study, mice with MM1S tumor xenografts received ≈80 µCi (2.96 MBq) of [^68Ga]Ga‐AJ206 and were sacrificed at pre‐determined time points (5, 30, 60, 90 and 120 min). […]
OBSERVABLE: tissue uptake at 0.5 h (%ID/g)
Report the value in %ID/g with no unit label.

*Q* Fill in tissue uptake at 0.5 h for record CC[C@H](C)[C@@H]1NC(=O)[C@@H]2CCCN2C(=O)[C@H](Cc2ccccc2)NC(=O)[C@H](CC(=O)O)NC(=O)[C@H](C)NC(=O)[C@@H]2CSCc3cc(cc(c3)CSC[C@H](NC(=O)[C@H](C)NC(=O)CCOCCOCCOCCNC(=O)CN3CCN(CC(=O)O)CCN(CC(=O)O)CC3)C(=O)N[C@@H](C(C)C)C(=O)N3CCC[C@H]3C(=O)N2)CSC[C@@H](C(N)=O)NC(=O)[C@H](Cc2ccc(O)cc2)NC(=O)[C@H](Cc2c[nH]c3ccccc23)NC1=O [[^68Ga]Ga‐AJ206, metal not drawn]
*A* 0.54

---

# EXPERIMENT NOTES: Ex vivo biodistribution in mice with MM1S tumor xenografts
# CONDITION LABEL: both sexes, NSG, mouse, spleen, 80 µCi, total radioactivity, 120 min p.i.; MM1S xenograft mice; read-out: uptake in spleen
OBSERVABLE: tissue uptake at 2 h (%ID/g)
Report the value in %ID/g with no unit label.

*Q* Fill in tissue uptake at 2 h for record CC[C@H](C)[C@@H]1NC(=O)[C@@H]2CCCN2C(=O)[C@H](Cc2ccccc2)NC(=O)[C@H](CC(=O)O)NC(=O)[C@H](C)NC(=O)[C@@H]2CSCc3cc(cc(c3)CSC[C@H](NC(=O)[C@H](C)NC(=O)CCOCCOCCOCCNC(=O)CN3CCN(CC(=O)O)CCN(CC(=O)O)CC3)C(=O)N[C@@H](C(C)C)C(=O)N3CCC[C@H]3C(=O)N2)CSC[C@@H](C(N)=O)NC(=O)[C@H](Cc2ccc(O)cc2)NC(=O)[C@H](Cc2c[nH]c3ccccc23)NC1=O [[^68Ga]Ga‐AJ206, metal not drawn]
*A* 0.28

---

# EXPERIMENT NOTES: Ex vivo biodistribution in mice with MM1S tumor xenografts
# CONDITION LABEL: both sexes, NSG, mouse, small intestine (with contents), 80 µCi, 30 min p.i.; MM1S xenograft mice; read-out: uptake in small intestine (with contents)
OBSERVABLE: tissue uptake at 0.5 h (%ID/g)
Report the value in %ID/g with no unit label.

*Q* Fill in tissue uptake at 0.5 h for record CC[C@H](C)[C@@H]1NC(=O)[C@@H]2CCCN2C(=O)[C@H](Cc2ccccc2)NC(=O)[C@H](CC(=O)O)NC(=O)[C@H](C)NC(=O)[C@@H]2CSCc3cc(cc(c3)CSC[C@H](NC(=O)[C@H](C)NC(=O)CCOCCOCCOCCNC(=O)CN3CCN(CC(=O)O)CCN(CC(=O)O)CC3)C(=O)N[C@@H](C(C)C)C(=O)N3CCC[C@H]3C(=O)N2)CSC[C@@H](C(N)=O)NC(=O)[C@H](Cc2ccc(O)cc2)NC(=O)[C@H](Cc2c[nH]c3ccccc23)NC1=O [[^68Ga]Ga‐AJ206, metal not drawn]
*A* 0.95

---

# EXPERIMENT NOTES: Ex vivo biodistribution in mice with MM1S tumor xenografts
# CONDITION LABEL: both sexes, NSG, mouse, tumor, 80 µCi, total radioactivity, 120 min p.i.; MM1S xenograft mice; read-out: uptake in tumor
OBSERVABLE: tissue uptake at 2 h (%ID/g)
Report the value in %ID/g with no unit label.

*Q* Fill in tissue uptake at 2 h for record CC[C@H](C)[C@@H]1NC(=O)[C@@H]2CCCN2C(=O)[C@H](Cc2ccccc2)NC(=O)[C@H](CC(=O)O)NC(=O)[C@H](C)NC(=O)[C@@H]2CSCc3cc(cc(c3)CSC[C@H](NC(=O)[C@H](C)NC(=O)CCOCCOCCOCCNC(=O)CN3CCN(CC(=O)O)CCN(CC(=O)O)CC3)C(=O)N[C@@H](C(C)C)C(=O)N3CCC[C@H]3C(=O)N2)CSC[C@@H](C(N)=O)NC(=O)[C@H](Cc2ccc(O)cc2)NC(=O)[C@H](Cc2c[nH]c3ccccc23)NC1=O [[^68Ga]Ga‐AJ206, metal not drawn]
*A* 1.3
